FYI, the data here is from patent US20250042994A1.

- TESTED TARGET: T1, Human CD19-his protein (human, UniProt P15391 20-291)
- T1 construct: bought protein; also called human CD19 protein; recombinant human CD19-His; not shown: His tag
- T1 sequence (looked up): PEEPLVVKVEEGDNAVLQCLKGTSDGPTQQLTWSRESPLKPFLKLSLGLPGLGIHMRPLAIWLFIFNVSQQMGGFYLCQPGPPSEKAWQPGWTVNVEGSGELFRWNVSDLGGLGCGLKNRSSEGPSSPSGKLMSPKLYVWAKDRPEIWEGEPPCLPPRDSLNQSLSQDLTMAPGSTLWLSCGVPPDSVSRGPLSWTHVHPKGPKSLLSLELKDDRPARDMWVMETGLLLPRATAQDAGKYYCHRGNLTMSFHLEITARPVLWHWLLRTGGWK
- EXPERIMENT SUMMARY: ELISA, antibody at 0.0001 nM
ASSAY METRIC: OD450
No unit in the answer, please; the number alone is enough.

Recorded OD450, per entry:
Please look up its OD450: F3.64.4 (antibody, human IgG1, V domains shown, human-murine chimeric antibody, human IgG1) VH: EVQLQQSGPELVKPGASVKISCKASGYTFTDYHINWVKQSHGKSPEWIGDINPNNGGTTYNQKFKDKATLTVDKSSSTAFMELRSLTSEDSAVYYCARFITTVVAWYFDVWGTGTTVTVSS VL: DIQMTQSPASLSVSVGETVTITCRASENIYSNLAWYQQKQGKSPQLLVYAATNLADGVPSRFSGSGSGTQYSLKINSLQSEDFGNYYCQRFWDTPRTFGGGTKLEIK 0.05

Please look up its OD450: F4.107.12 (antibody, human IgG1, V domains shown, human-murine chimeric antibody, human IgG1) VH: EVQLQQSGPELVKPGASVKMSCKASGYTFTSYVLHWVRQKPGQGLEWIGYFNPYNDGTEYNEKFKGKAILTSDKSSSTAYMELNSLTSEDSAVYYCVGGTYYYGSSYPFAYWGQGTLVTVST VL: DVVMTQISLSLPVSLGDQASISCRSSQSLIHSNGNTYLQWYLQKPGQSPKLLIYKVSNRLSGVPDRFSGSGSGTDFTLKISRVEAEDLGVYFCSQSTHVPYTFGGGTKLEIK 0.05

More entries:
Please look up its OD450: F4.145.9 (antibody, human IgG1, V domains shown, human-murine chimeric antibody, human IgG1) VH: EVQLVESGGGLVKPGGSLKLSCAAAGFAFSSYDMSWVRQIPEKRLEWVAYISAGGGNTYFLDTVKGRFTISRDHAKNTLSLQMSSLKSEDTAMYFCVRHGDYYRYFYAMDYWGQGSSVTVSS VL: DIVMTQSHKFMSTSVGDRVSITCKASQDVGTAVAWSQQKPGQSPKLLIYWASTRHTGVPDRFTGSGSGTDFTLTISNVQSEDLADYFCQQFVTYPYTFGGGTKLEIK 0.06

Please look up its OD450: F3.83.9 (antibody, human IgG1, V domains shown, human-murine chimeric antibody, human IgG1) VH: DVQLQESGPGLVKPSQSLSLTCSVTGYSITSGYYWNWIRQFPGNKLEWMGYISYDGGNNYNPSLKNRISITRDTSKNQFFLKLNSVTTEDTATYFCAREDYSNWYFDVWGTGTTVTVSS VL: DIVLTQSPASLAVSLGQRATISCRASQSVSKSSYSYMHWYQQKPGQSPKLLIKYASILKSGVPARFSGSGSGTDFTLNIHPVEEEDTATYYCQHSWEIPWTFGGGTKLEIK 0.05

Please look up its OD450: F3.5.1 (antibody, human IgG1, V domains shown, human-murine chimeric antibody, human IgG1) VH: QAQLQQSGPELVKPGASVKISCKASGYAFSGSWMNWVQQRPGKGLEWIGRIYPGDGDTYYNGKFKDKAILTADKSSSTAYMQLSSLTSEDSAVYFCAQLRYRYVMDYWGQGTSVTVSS VL: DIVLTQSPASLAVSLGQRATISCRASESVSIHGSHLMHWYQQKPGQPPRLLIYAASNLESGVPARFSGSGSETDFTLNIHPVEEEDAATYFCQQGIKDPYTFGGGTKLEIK 0.05
